Assay: AUC following oral dose
Format: ADME, organism-based
Details: rat, plasma
Lab note: compare AUC against 9 µg·h/mL. Equal or greater, write criterion met. Smaller, write criterion not met.

Item CC(CO)/N=C(\N)c1c(O)nsc1Nc1ccc(Oc2cc(F)cc(F)c2Cl)cc1 (stereo not given) with AUC of 9 µg·h/mL or above? criterion met

Has CC(C)C(CO)N=C(N)c1c(Nc2ccc(Oc3cc(Cl)ccc3Cl)cc2)s[nH]c1=O (stereo not given) a recorded AUC greater than or equal to 9 µg·h/mL? criterion met

AUC >= 9 µg·h/mL for NC(=NCCCN1CCOCC1)c1c(Nc2ccc(Oc3cc(Cl)ccc3Cl)cc2)s[nH]c1=O ? criterion not met

# bool: AUC of CC(CO)/N=C(\N)c1c(O)nsc1Nc1ccc(C(C)(C)c2ccccc2)cc1 (stereo not given) >= 9 µg·h/mL criterion not met

Check the entry CC(CO)NC(=N)c1c(O)nsc1Nc1ccc(Oc2cccc(F)c2F)cc1 (stereo not given) : does AUC equal or exceed 9 µg·h/mL? criterion met

----------
Experiment: AUC following intravenous dose
Format: ADME, organism-based
Settings: rat, plasma
Cut-off 7000 ng·h/mL on AUC: below means T, at or above means F.

State whether 7000 ng·h/mL exceeds AUC recorded for CC(CO)N=C(N)c1c(Nc2ccc(S(=O)(=O)c3ccccc3)cc2)s[nH]c1=O (configuration not stated) . F

Bench note: check whether CC(CO)/N=C(\N)c1c(O)nsc1Nc1ccc(Cc2ccccc2)cc1 (configuration not stated) shows AUC below 7000 ng·h/mL F

Hello, is AUC of the following compound strictly smaller than 7000 ng·h/mL? CC(CO)NC(=N)c1c(O)nsc1Nc1ccc(Nc2ccccc2)cc1 (configuration not stated) T

Here's an entry: CC(CO)/N=C(\N)c1c(O)nsc1Nc1ccc(C(C)(C)c2ccccc2)cc1 (configuration not stated) . Is its AUC below 7000 ng·h/mL? F

Quick check: does CC(CO)/N=C(\N)c1c(O)nsc1Nc1ccc(C(=O)c2ccccc2)cc1 (configuration not stated) have AUC under 7000 ng·h/mL? T

Is AUC of CC(CO)/N=C(\N)c1c(O)nsc1Nc1ccc(Oc2ccccc2)cc1 (configuration not stated) strictly below 7000 ng·h/mL? F

----------
Experiment: AUC following oral dose
Type: ADME, organism-based
Settings: rat, plasma
Cut-off 10000 ng·h/mL on AUC: below means y, at or above means n.

hey, is AUC for CC(CO)NC(=N)c1c(O)nsc1Nc1ccc(Oc2cccc(C(F)(F)F)c2Cl)cc1 (stereo not given) lower than 10000 ng·h/mL or not? n

Report whether reported AUC is lower than 10000 ng·h/mL (strictly) for CC(CO)/N=C(\N)c1c(O)nsc1Nc1ccc(Oc2cc(F)cc(F)c2Cl)c(F)c1 (stereo not given) n

Record CC(CO)/N=C(\N)c1c(O)nsc1Nc1ccc(Cc2ccccc2)cc1 (stereo not given) : is its AUC strictly below 10000 ng·h/mL? y

hey, is AUC for NC(=NCCO)c1c(Nc2ccc(Oc3cc(Cl)ccc3Cl)cc2)s[nH]c1=O lower than 10000 ng·h/mL or not? n

Please check: AUC for CC(CO)NC(=N)c1c(O)nsc1Nc1ccc(Oc2cccc(C(F)(F)F)c2Cl)c(Cl)c1 (stereo not given) , strictly under 10000 ng·h/mL or not? y

hey, is AUC for N/C(=N\N1CCOCC1)c1c(O)nsc1Nc1ccc(Oc2cc(Cl)ccc2Cl)cc1 lower than 10000 ng·h/mL or not? y

Dear colleague, could you confirm whether AUC of Cc1cc(Oc2ccc(F)cc2Cl)ccc1Nc1snc(O)c1/C(N)=N/C(C)CO (stereo not given) falls below 10000 ng·h/mL? Thanks. n

Here's an entry: CC(CO)NC(=N)c1c(O)nsc1Nc1ccc(Oc2ccc(Cl)cc2Cl)cc1 (stereo not given) . Is its AUC below 10000 ng·h/mL? n

Please state whether AUC is below 10000 ng·h/mL for CC(CO)N=C(N)c1c(Nc2ccc(Sc3ccccc3)cc2)s[nH]c1=O (stereo not given) y

Lab log: compare recorded AUC with 10000 ng·h/mL; is it strictly lower for N=C(NCCC(O)CO)c1c(O)nsc1Nc1ccc(Oc2cc(Cl)ccc2Cl)cc1 (stereo not given) ? y
